Test system: 134 cancer cell lines
assay: Cell viability assay (ATPlite, 72 hours), IC50 on cancer cell line panel
testParameters: Homo sapiens, SK-N-SH, read-out: IC50 in cell proliferation assay, cell line SK-N-SH (ALK p.F1174L)
readoutKind: IC50 (µM)
Express it in µM; write the number only.

COc1cc2ncnc(Nc3ccc(F)c(Cl)c3)c2cc1NC(=O)/C=C/CN1CCCCC1 [dacomitinib] | 2.47
C[C@H](Nc1ncnc2nc[nH]c12)c1cc2cccc(Cl)c2c(=O)n1-c1ccccc1 [duvelisib] | 12.6
CN1CCN(c2ccc(C(=O)Nc3n[nH]c4ccc(Cc5cc(F)cc(F)c5)cc34)c(NC3CCOCC3)c2)CC1 [entrectinib] | 2.8
Cn1cnc2c(F)c(Nc3ccc(Br)cc3F)c(C(=O)NOCCO)cc21 [binimetinib] | 0.059

INPUT: Consider the compound shown here: Cn1cnc2c(F)c(Nc3ccc(Br)cc3Cl)c(C(=O)NOCCO)cc21 [selumetinib] What is its recorded IC50?
OUTPUT: 0.066

Attribution: paper PMC9516332
